Assay info: in vivo
Run conditions: female, ICR, mouse, iv
Quantity name: AUC (µM·h)
Write the number in µM·h without appending the unit.

In: If you can, please state the reported AUC value of COc1cccc2c1C(=O)c1c(O)c3c(c(O)c1C2=O)C[C@@](O)(C(=O)CO)C[C@@H]3O[C@H]1C[C@H](N)[C@H](O)[C@H](C)O1 [Doxorubicin, reference compound] .
Out: 3.3

###

Assay info: SD-MTD studies, 60 days, normal mice (Example 14)
Run conditions: mouse, in vivo; Table 11, doses as first stated; intravenous bolus, 60 days
Quantity name: MTD at 60 days (mg/kg)
Write the number in mg/kg without appending the unit.

In: If you can, please state the reported MTD at 60 days value of COc1cccc2c1C(=O)c1c(O)c3c(c(O)c1C2=O)C[C@@](O)(C(=O)CO)C[C@@H]3O[C@H]1C[C@H](N)[C@H](O)[C@H](C)O1 [Doxorubicin, reference compound] .
Out: 4

###

Assay info: in vivo
Run conditions: female, ICR, mouse, iv, 100 umol/kg
Reported AUC values are given for each entry in this list.
Write the number in µM·h without appending the unit.

Please review the entries below; each comes with its answer.
{"Molecule": "COc1cccc2c1C(=O)c1c(O)c3c(c(O)c1C2=O)C[C@@](O)(C(=O)CO)C[C@@H]3O[C@H]1C[C@H](NC(=O)[C@H](CC(C)C)NC(=O)[C@H](C)NC(=O)[C@H](CC(C)C)NC(=O)CCC(=O)O)[C@H](O)[C@H](C)O1 [Suc-Leu-Ala-Leu-Dox]", "Value units": "µM·h", "AUC": 634}
{"Molecule": "CC[C@H](C)[C@H](NC(=O)CCNC(=O)CCC(=O)O)C(=O)N[C@@H](C)C(=O)N[C@@H](CC(C)C)C(=O)N[C@H]1C[C@H](O[C@H]2C[C@](O)(C(=O)CO)Cc3c(O)c4c(c(O)c32)C(=O)c2c(OC)cccc2C4=O)O[C@@H](C)[C@H]1O [Suc-βAla-Ile-Ala-Leu-Dox]", "Value units": "µM·h", "AUC": 326}
{"Molecule": "COc1cccc2c1C(=O)c1c(O)c3c(c(O)c1C2=O)C[C@@](O)(C(=O)CO)C[C@@H]3O[C@H]1C[C@H](NC(=O)CNC(=O)[C@H](C)NC(=O)[C@H](CC(C)C)NC(=O)CCC(=O)O)[C@H](O)[C@H](C)O1 [Suc-Leu-Ala-Gly-Dox]", "Value units": "µM·h", "AUC": 310}

In: If you can, please state the reported AUC value of COc1cccc2c1C(=O)c1c(O)c3c(c(O)c1C2=O)C[C@@](O)(C(=O)CO)C[C@@H]3O[C@H]1C[C@H](NC(=O)[C@H](CC(C)C)NC(=O)[C@H](C)NC(=O)[C@H](CC(C)C)NC(=O)CCNC(=O)CCC(=O)O)[C@H](O)[C@H](C)O1 [Suc-βAla-Leu-Ala-Leu-Dox, reference compound] .
Out: 806

Data provenance: patent US7214663B2
